System: L1210
Assay: Antitumor activity against mouse L1210 cells xenografted in BDF1 mouse at 1.6 mg/kg, ip relative to control
Type: functional
Conditions: route intraperitoneal
Catalogue of compounds with associated T/C
The response must be a number in % with no trailing unit.

Input: Need T/C of CC[C@@]1(O)C[C@H](O[C@H]2C[C@H](N(C)C)[C@H](O[C@H]3C[C@H](O)[C@H](O[C@@H]4O[C@@H](C)C(=O)C=C4N)[C@@H](C)O3)[C@@H](C)O2)c2c(cc3c(c2O)C(=O)c2c(O)ccc(O)c2C3=O)[C@H]1C(=O)OC [RUDOLPHOMYCIN] , thanks.
Output: 133

Input: Please give the result for CC[C@@]1(O)C[C@H](O[C@H]2C[C@H](NC)[C@H](O[C@H]3C[C@H](O)[C@H](O[C@@H]4C[C@H](O)[C@H](O)[C@H](C)O4)[C@H](C)O3)[C@@H](C)O2)c2c(cc3c(c2O)C(=O)c2c(O)ccc(O)c2C3=O)[C@H]1C(=O)OC [ALCINDOROMYCIN] too.
Output: 93

Input: Please give the result for CC[C@@]1(O)C[C@H](O[C@H]2C[C@H](N(C)C)[C@H](O[C@H]3C[C@H](O)[C@H](O)[C@@H](C)O3)[C@@H](C)O2)c2c(cc3c(c2O)C(=O)c2c(O)ccc(O)c2C3=O)[C@H]1C(=O)OC [COLLINEMYCIN] too.
Output: 107

Now consider the entry below.
Input: Need T/C of CC[C@@]1(O)C[C@H](O[C@H]2C[C@H](N(C)C)[C@H](O[C@H]3C[C@H](O)[C@H](O[C@@H]4C[C@H](O)[C@H](O)[C@H](C)O4)[C@H](C)O3)[C@@H](C)O2)c2c(cc3c(c2O)C(=O)c2c(O)ccc(O)c2C3=O)[C@@H]1C(=O)OC [MIMIMYCIN] , thanks.
Output: 100

---

Tested on: Mus musculus
Assay: Toxicity in BDF1 mouse xenografted with mouse L1210 cells assessed as survival at 12.8 mg/kg, ip after 5 days
Type: organism-based
Design: dose 12.8 mg/kg, route intraperitoneal
Details: in vivo, 120 h
quantity-kind: Activity

Input: Need Activity of CC[C@@]1(O)C[C@H](O[C@H]2C[C@H](N(C)C)[C@H](O[C@H]3C[C@H](O)[C@H](O[C@@H]4C[C@H](O)[C@H](O)[C@H](C)O4)[C@H](C)O3)[C@@H](C)O2)c2c(cc3c(c2O)C(=O)c2c(O)ccc(O)c2C3=O)[C@@H]1C(=O)OC [MIMIMYCIN] , thanks.
Output: Non-toxic

Input: Please give the result for CC[C@@]1(O)C[C@H](O[C@H]2C[C@H](N(C)C)[C@H](O[C@H]3C[C@H](O)[C@H](O[C@@H]4O[C@@H](C)C(=O)C=C4N)[C@@H](C)O3)[C@@H](C)O2)c2c(cc3c(c2O)C(=O)c2c(O)ccc(O)c2C3=O)[C@H]1C(=O)OC [RUDOLPHOMYCIN] too.
Output: Toxic

Input: Please give the result for CC[C@@]1(O)C[C@H](O[C@H]2C[C@H](NC)[C@H](O[C@H]3C[C@H](O)[C@H](O[C@@H]4C[C@H](O)[C@H](O)[C@H](C)O4)[C@H](C)O3)[C@@H](C)O2)c2c(cc3c(c2O)C(=O)c2c(O)ccc(O)c2C3=O)[C@H]1C(=O)OC [ALCINDOROMYCIN] too.
Output: Non-toxic

Input: Please give the result for CC[C@@]1(O)C[C@H](O[C@H]2C[C@H](N(C)C)[C@H](O[C@H]3C[C@H](O)[C@H](O)[C@@H](C)O3)[C@@H](C)O2)c2c(cc3c(c2O)C(=O)c2c(O)ccc(O)c2C3=O)[C@H]1C(=O)OC [COLLINEMYCIN] too.
Output: Non-toxic

Values compiled from ChEMBL document CHEMBL1151339.
